Assignment: determine reported protein stability index for the given variants.
B1: FAM164C (parent)
chain: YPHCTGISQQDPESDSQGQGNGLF

variants of: B1; assay: protein stability index of a GFP-peptide fusion (GPS, HEK-293T) (PSI 1-6); higher = more stable; conditions: c terminus: a fixed tail appended;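 also: lentivirally expressed fusions sorted by FACS into six bins by GFP to DsRed ratio, PSI derived from sequencing read proportions per bin multiplied by bin number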
Form rule: numeric answer, no unit written next to it.

Identify measured protein stability index associated with YPHCTGISQQDPESASQGQGNGLF [D15A] 3.53

Identify measured protein stability index associated with YPGCTGISQQDPESDSQGQGNGLF [H3G] 3.39

Identify measured protein stability index associated with YPHCTGISQQDPMSDSQGQGNGLF [E13M] 3.21

Identify measured protein stability index associated with YPHCTGISQQDPESDSQGQGNGLK [F24K] 5.12

Identify measured protein stability index associated with YPHCTGISQQDPESDSQGQENGLF [G20E] 4.33

Identify measured protein stability index associated with YPHCTGISQQDPESDSQGQGMGLF [N21M] 3.35

Source listed as the supplement of paper PMC10567573.
